Let's look at some compounds and their measured IC50.
biological target: MAGL (Homo sapiens); test: Native MS (RapidFire) 2-AG substrate assay, purified human MAGL; format: biochemical; conditions: purified human MAGL, native MS substrate assay; IC50 of covalent inhibitors time-dependent; read-out: IC50 hMAGL
Sequence (Q99685 whole entry): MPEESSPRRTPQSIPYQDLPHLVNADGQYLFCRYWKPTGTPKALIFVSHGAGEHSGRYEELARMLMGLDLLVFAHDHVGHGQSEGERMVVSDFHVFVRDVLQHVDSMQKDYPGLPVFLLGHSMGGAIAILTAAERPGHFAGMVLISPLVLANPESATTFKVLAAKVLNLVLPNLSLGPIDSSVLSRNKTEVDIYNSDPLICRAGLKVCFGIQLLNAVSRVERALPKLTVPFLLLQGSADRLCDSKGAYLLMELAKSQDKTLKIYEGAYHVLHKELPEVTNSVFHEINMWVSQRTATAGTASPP
Number in nM, nothing else.

Would you please look over these solved cases?
compound: O=C(OC(C(F)(F)F)C(F)(F)F)N1CC2(CC(CC3=C4C=CC(c5ccc[nH]5)=[N+]4[B-](F)(F)n4cccc43)C2)C1 [Compound 2a]
observation.type: IC50
measured: 0.98

compound: O=C(N1CC2(CC(CC3=C4C=CC=[N+]4[B-](F)(F)n4cccc43)C2)C1)N1CC2(CC(n3cnc(C4CC4)n3)C2)C1 [Compound 5]
observation.type: IC50
measured: 0.58

IC50 in this record for O=C(OC(C(F)(F)F)C(F)(F)F)N1CC2(CC(CC3=C4C=CC=[N+]4[B-](F)(F)n4cccc43)C2)C1 [Compound 2] : 0.39

----------
molecular target: alpha2A (h) (Homo sapiens); experiment: alpha2A (h) (antagonist radioligand); details: read-out: Inhibition alpha2A (h) (antagonist radioligand)
Sequence (P08913 whole entry): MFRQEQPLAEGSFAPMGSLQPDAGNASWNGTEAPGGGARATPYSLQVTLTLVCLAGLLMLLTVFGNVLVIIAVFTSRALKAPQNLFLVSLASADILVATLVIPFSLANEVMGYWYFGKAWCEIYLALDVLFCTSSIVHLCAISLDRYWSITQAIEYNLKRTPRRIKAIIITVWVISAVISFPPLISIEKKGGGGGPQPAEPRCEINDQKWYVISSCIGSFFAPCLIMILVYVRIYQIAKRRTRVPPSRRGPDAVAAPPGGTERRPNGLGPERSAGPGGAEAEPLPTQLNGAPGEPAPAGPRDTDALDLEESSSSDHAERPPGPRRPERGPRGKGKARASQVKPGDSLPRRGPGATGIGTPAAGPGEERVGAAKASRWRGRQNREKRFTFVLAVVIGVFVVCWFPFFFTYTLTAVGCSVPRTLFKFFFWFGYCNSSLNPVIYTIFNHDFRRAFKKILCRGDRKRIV
observation.type: inhibition at 10 µM (%)
Number in %, nothing else.

inhibition at 10 µM in this record for O=C1CO[C@H]2CCN(C(=O)N3CC4(CC(CC5=C6C=CC(c7ccc[nH]7)=[N+]6[B-](F)(F)n6cccc65)C4)C3)C[C@H]2N1 : 7.4

----------
Let's look at some compounds and their measured inhibition at 10 µM.
Molecular target: CCK1 (CCKA) (h) (Homo sapiens, UniProt P32238)
Sequence (P32238 1-428): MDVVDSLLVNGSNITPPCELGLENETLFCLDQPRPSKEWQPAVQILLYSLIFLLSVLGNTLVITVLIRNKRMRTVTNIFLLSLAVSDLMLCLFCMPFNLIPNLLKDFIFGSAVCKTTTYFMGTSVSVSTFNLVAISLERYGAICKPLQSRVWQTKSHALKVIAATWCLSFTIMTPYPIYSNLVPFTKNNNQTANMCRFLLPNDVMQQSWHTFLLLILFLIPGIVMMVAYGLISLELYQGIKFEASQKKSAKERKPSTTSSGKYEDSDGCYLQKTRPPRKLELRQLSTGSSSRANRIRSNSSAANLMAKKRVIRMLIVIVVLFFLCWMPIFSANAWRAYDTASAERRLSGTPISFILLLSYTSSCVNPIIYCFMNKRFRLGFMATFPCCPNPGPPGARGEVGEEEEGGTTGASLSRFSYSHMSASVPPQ
Test: CCK1 (CCKA) (h) (agonist radioligand)
Conditions: read-out: Inhibition CCK1 (CCKA) (h) (agonist radioligand)
Number in %, nothing else.

compound: O=C(OC(C(F)(F)F)C(F)(F)F)N1CC2(CC(CC3=C4C=CC(c5ccc[nH]5)=[N+]4[B-](F)(F)n4cccc43)C2)C1
units.of.measure: %
measured: 11.9
--
compound: O=C1CO[C@H]2CCN(C(=O)N3CC4(CC(CC5=C6C=CC(c7ccc[nH]7)=[N+]6[B-](F)(F)n6cccc65)C4)C3)C[C@H]2N1
units.of.measure: %
measured: -22.1
--
compound: O=C(O[C@H](CO)C(F)(F)F)N1CC2(CC(CC3=C4C=CC=[N+]4[B-](F)(F)n4cccc43)C2)C1
units.of.measure: %
measured: -3.8

inhibition at 10 µM in this record for O=C(N1CC2(CC(CC3=C4C=CC=[N+]4[B-](F)(F)n4cccc43)C2)C1)N1CC2(CC(n3cnc(C4CC4)n3)C2)C1 : -24.7

inhibition at 10 µM in this record for O=C(OC(C(F)(F)F)C(F)(F)F)N1CC2(CC(CC3=C4C=CC=[N+]4[B-](F)(F)n4cccc43)C2)C1 : -8.8
